Please respond with reported relative cell viability for every item in the list.
tested on: Hep3B; assay: relative cell viability (CellTiter-Glo), compound plus cabozantinib, relative to the cabozantinib arm (arm median 1.05; reference not stated) (fraction); higher = more viable cells (less growth inhibition); settings: cabozantinib 2 µM; 4 days
Whole data set: some 1,900 compounds, median “relative cell viability (CellTiter-Glo), compound plus cabozantinib, relative to the cabozantinib arm (arm median 1.05; reference not stated)” near 1.1, cut for the lowest 2% near 0.15. The sample holds the lowest values, similar compounds and a random draw of the others, so the mix is not that of the screen.
Give bare numbers.

Please review the following examples before continuing.
O=C(O)Cc1cccc(OCCCN(Cc2cccc(C(F)(F)F)c2Cl)CC(c2ccccc2)c2ccccc2)c1	1.15
CC(C)[C@H](C(=O)Nc1ccc(C(=O)NO)cc1)c1ccccc1	0.142
CCN(CC)C(=S)SSC(=S)N(CC)CC	0.0898
CCCCN(Cc1ccc(C(=O)NO)cc1)C(=O)Nc1ccccc1	0.953

Could you now look at the following compound, please?
q: Using known records, supply relative cell viability for CNCc1ccc(C)c(NC(=O)c2ccc(Nc3nc(-c4ccccc4)c4ccccc4n3)cc2)c1
a: 0.858

====

test system: Hep3B; assay: relative cell viability (CellTiter-Glo), compound plus cabozantinib, relative to the cabozantinib arm (arm median 1.05; reference not stated) (fraction); higher = more viable cells (less growth inhibition); conditions: cabozantinib 2 µM; 4 days
In all, about 1,900 compounds were measured (“relative cell viability (CellTiter-Glo), compound plus cabozantinib, relative to the cabozantinib arm (arm median 1.05; reference not stated)”: median about 1.1, lowest 2% from about 0.15 on). The entries come from a sample that favours the lowest values as a whole.
attributeMeasured: relative cell viability
Answers are plain numbers.

Please review the following examples before continuing.
COc1nc(N)nc2c1ncn2[C@@H]1O[C@H](CO)[C@@H](O)[C@@H]1O [Nelarabine]	1.17
COc1ccc(C(=O)Nc2sc3c(c2C(N)=O)CCCC3)cc1OC	1.03
COc1ccc(Cn2ccc3ccc(C(=O)NO)cc32)cc1	0.91
Cc1cc(F)c(Nc2ncnc3cc(OCc4ccccc4)ccc23)cc1O	1.05
CS(=O)(=O)CCNCc1ccc(-c2ccc3ncnc(Nc4ccc(OCc5cccc(F)c5)c(Cl)c4)c3c2)o1 [Lapatinib]	0.971
OCC(CO)N[C@H]1C[C@](O)(CO)[C@@H](O)[C@H](O)[C@H]1O [Voglibose]	1.28

q: Using known records, supply relative cell viability for COC(=O)[C@H](CCSC)NC(=O)c1ccc(NC[C@@H](N)CS)cc1-c1ccccc1
a: 1.16
